test system: L1210 leukemia ip in BDF1 mice, survival T/C; experiment: NCI In Vivo Anticancer Drug Screen. Data for tumor model L1210 Leukemia (intraperitoneal) in B6D2F1 (BDF1) mice; conditions: endpoint: mean survival time; dose: 100.0 mg/kg/injection; schedule: Q01DX009 (ip); vehicle: saline with Tween-80; higher = longer survival
Toxic doses and inconclusive results are not listed.
observation-type: T/C

[
  {
    "compound": "CCCCCOC(=O)Nc1cccc(OC(=O)NC)c1",
    "target-under-test": "L1210 leukemia ip in BDF1 mice, survival T/C",
    "T/C": "105 % of control"
  },
  {
    "compound": "O=C1c2ccccc2C(=O)c2cc3nc4c5ccccc5c5ccccc5c4nc3cc21",
    "target-under-test": "L1210 leukemia ip in BDF1 mice, survival T/C",
    "T/C": "93 % of control"
  },
  {
    "compound": "CC(C)(C)n1cc(C(=O)c2ccccc2)cc1-c1ccccc1",
    "target-under-test": "L1210 leukemia ip in BDF1 mice, survival T/C",
    "T/C": "91 % of control"
  },
  {
    "compound": "CC(C)(CO)CCl",
    "target-under-test": "L1210 leukemia ip in BDF1 mice, survival T/C",
    "T/C": "95 % of control"
  },
  {
    "compound": "Cn1nnc2nnc(-c3ccccc3)n21",
    "target-under-test": "L1210 leukemia ip in BDF1 mice, survival T/C",
    "T/C": "100 % of control"
  }
]

The value of T/C measured for the compound COc1cccc(OC)c1OC(=O)NS(=O)(=O)c1ccc(Cl)cc1 turned out to be 116 % of control

The compound O=c1[nH]ccc2c(O)cccc12 showed T/C equal to 97 % of control

// recorded T/C for COc1cc2c(cc1[N+](=O)[O-])C(=O)CCCC2 : 92 % of control

Recorded result, c1ccc(-n2nc3c(c2OCCN2CCCC2)CCCc2ccccc2-3)cc1 , T/C: 104 % of control

###

tested on: L1210 leukemia ip in BDF1 mice, survival T/C; assay: NCI In Vivo Anticancer Drug Screen. Data for tumor model L1210 Leukemia (intraperitoneal) in B6D2F1 (BDF1) mice; details: endpoint: mean survival time; dose: 200.0 mg/kg/injection; schedule: Q04DX003 (ip); vehicle: Klucel (hydroxypropylcellulose) (HPC); higher = longer survival
Toxic doses and inconclusive results are not listed.
Let's look at some compounds and their measured T/C.

[
  {
    "compound": "CC(=O)NCC1OC(COCc2ccccc2)C(OCc2ccccc2)C1OCc1ccccc1 (configuration not stated)",
    "target-under-test": "L1210 leukemia ip in BDF1 mice, survival T/C",
    "reported-result": "96 % of control"
  },
  {
    "compound": "CC(=O)Nc1cc2c(cc1[N+](=O)[O-])-c1ccc([N+](=O)[O-])cc1C2",
    "target-under-test": "L1210 leukemia ip in BDF1 mice, survival T/C",
    "reported-result": "91 % of control"
  },
  {
    "compound": "Cc1ccc(NC(=O)Nc2ccccc2C)c(C)c1",
    "target-under-test": "L1210 leukemia ip in BDF1 mice, survival T/C",
    "reported-result": "91 % of control"
  },
  {
    "compound": "CC(=O)Oc1cc(O)c2c(c1)OC(C)(C)CC2=O",
    "target-under-test": "L1210 leukemia ip in BDF1 mice, survival T/C",
    "reported-result": "100 % of control"
  },
  {
    "compound": "NC(=O)Nc1ccc(C(=O)O)cc1",
    "target-under-test": "L1210 leukemia ip in BDF1 mice, survival T/C",
    "reported-result": "97 % of control"
  },
  {
    "compound": "CCCCCCCCCCCCCCCCCCNC(=O)N(CC)c1ccccc1C",
    "target-under-test": "L1210 leukemia ip in BDF1 mice, survival T/C",
    "reported-result": "90 % of control"
  }
]

Entry under test: c1ccc(-c2nc3ccccc3o2)cc1 . Its T/C was 95 % of control

# T/C (compound: CS(=O)(=O)OC1C(OCc2ccccc2)OC(COCc2ccccc2)C(OC2OC(COCc3ccccc3)C(OCc3ccccc3)C(OCc3ccccc3)C2OCc2ccccc2)C1OCc1ccccc1 (configuration not stated) ) is 97 % of control
